# Species on record: Rattus norvegicus
# ASSAY_COMMENT: Open TG-GATES - Regimen: Single
# Type: toxicity, organism-based, Sprague-Dawley
# Parameters: regimen Single, gender Male, age 6 weeks
# MEASUREMENT_SETUP: in vivo, po, 1000 mg/kg, 6 h, tissue Blood, route gavage, dose level High
READOUT_KIND: Mono (%)

INSERT INTO results (smiles_record, readout_kind, units_symbol, recorded_measurement) VALUES
  ('COC(=O)C1=C(C)NC(C)=C(C(=O)OC)C1c1ccccc1[N+](=O)[O-]', 'Mono', '%', 3.6),
  ('O=C(OC[C@H]1O[C@@H](OC(=O)c2cc(O)c(O)c(OC(=O)c3cc(O)c(O)c(O)c3)c2)[C@H](OC(=O)c2cc(O)c(O)c(OC(=O)c3cc(O)c(O)c(O)c3)c2)[C@@H](OC(=O)c2cc(O)c(O)c(OC(=O)c3cc(O)c(O)c(O)c3)c2)[C@@H]1OC(=O)c1cc(O)c(O)c(OC(=O)c2cc(O)c(O)c(O)c2)c1)c1cc(O)c(O)c(OC(=O)c2cc(O)c(O)c(O)c2)c1', 'Mono', '%', 7),
  ('CN/C(=N/CCSCc1nc[nH]c1C)NC#N', 'Mono', '%', 2.8),
  ('Cc1nnc2n1-c1ccc(Cl)cc1C(c1ccccc1Cl)=NC2', 'Mono', '%', 2.2),
  ('CNC(=C[N+](=O)[O-])NCCSCc1ccc(CN(C)C)o1', 'Mono', '%', 3);

###

# Species: Rattus norvegicus
# ASSAY_COMMENT: Open TG-GATES - Regimen: Daily Repeat
# Assay type: toxicity, organism-based, Sprague-Dawley
# Set-up: regimen Daily Repeat, gender Male, age 6 weeks
# MEASUREMENT_SETUP: in vivo, po, 0 mg/kg, […], tissue Plasma, route gavage, dose level Control, time 14 day
Assign labels as follows, please: label 1 for IP below 7 mg/dL; label 0 for IP equal to or exceeding 7 mg/dL.

INSERT INTO results (compound, class_assignment) VALUES
  ('CCCc1cc(=O)[nH]c(=S)[nH]1', 'label 0'),
  ('Nc1c2c(nc3ccccc13)CCCC2', 'label 1'),
  ('O=C(OC[C@H]1O[C@@H](OC(=O)c2cc(O)c(O)c(OC(=O)c3cc(O)c(O)c(O)c3)c2)[C@H](OC(=O)c2cc(O)c(O)c(OC(=O)c3cc(O)c(O)c(O)c3)c2)[C@@H](OC(=O)c2cc(O)c(O)c(OC(=O)c3cc(O)c(O)c(O)c3)c2)[C@@H]1OC(=O)c1cc(O)c(O)c(OC(=O)c2cc(O)c(O)c(O)c2)c1)c1cc(O)c(O)c(OC(=O)c2cc(O)c(O)c(O)c2)c1', 'label 0'),
  ('CN/C(=N/CCSCc1nc[nH]c1C)NC#N', 'label 0'),
  ('CN1C(=O)CCS(=O)(=O)C1c1ccc(Cl)cc1 (stereo not drawn)', 'label 1'),
  ('CC(C)NNC(=O)c1ccncc1', 'label 1'),
  ('COC(=O)C1=C(C)NC(C)=C(C(=O)OC)C1c1ccccc1[N+](=O)[O-]', 'label 0'),
  ('NC1=NC(=O)C(c2ccccc2)O1 (stereo not drawn)', 'label 0');

###

# Organism: Rattus norvegicus
# ASSAY_COMMENT: Open TG-GATES - Regimen: Single
# Type: toxicity, organism-based, Sprague-Dawley
# Design: regimen Single, gender Male, age 6 weeks
# MEASUREMENT_SETUP: in vivo, po, 0 mg/kg, 3 h, tissue Plasma, route gavage, dose level Control
Please enter 1 where IP is greater than or equal to 9 mg/dL, and 0 where it is lower.

INSERT INTO results (molecule, class_assignment) VALUES
  ('Brc1ccccc1 [BROMOBENZENE]', 1),
  ('Nc1c2c(nc3ccccc13)CCCC2 [TACRINE]', 0),
  ('CNC(=C[N+](=O)[O-])NCCSCc1ccc(CN(C)C)o1 [RANITIDINE]', 0),
  ('CN(C)CCC(c1ccc(Cl)cc1)c1ccccn1 (centres undefined) [CHLORPHENIRAMINE]', 1),
  ('CCCc1cc(=O)[nH]c(=S)[nH]1 [PROPYLTHIOURACIL]', 1),
  ('O=C(OC[C@H]1O[C@@H](OC(=O)c2cc(O)c(O)c(OC(=O)c3cc(O)c(O)c(O)c3)c2)[C@H](OC(=O)c2cc(O)c(O)c(OC(=O)c3cc(O)c(O)c(O)c3)c2)[C@@H](OC(=O)c2cc(O)c(O)c(OC(=O)c3cc(O)c(O)c(O)c3)c2)[C@@H]1OC(=O)c1cc(O)c(O)c(OC(=O)c2cc(O)c(O)c(O)c2)c1)c1cc(O)c(O)c(OC(=O)c2cc(O)c(O)c(O)c2)c1 [TANNIC ACID]', 1),
  ('CC(C)NNC(=O)c1ccncc1 [IPRONIAZID]', 0),
  ('COC(=O)C1=C(C)NC(C)=C(C(=O)OC)C1c1ccccc1[N+](=O)[O-] [NIFEDIPINE]', 1),
  ('CS(=O)(=O)O.Cc1ccc(NC(=O)c2ccc(CN3CCN(C)CC3)cc2)cc1Nc1nccc(-c2cccnc2)n1 [IMATINIB MESYLATE]', 0),
  ('CN1C(=O)CCS(=O)(=O)C1c1ccc(Cl)cc1 (centres undefined) [CHLORMEZANONE]', 1);

###

# Species on record: Rattus norvegicus
# ASSAY_COMMENT: Open TG-GATES - Regimen: Single
# Format: toxicity, organism-based, Sprague-Dawley
# Design: regimen Single, gender Male, age 6 weeks
# MEASUREMENT_SETUP: in vivo, po, 300 mg/kg, 6 h, tissue Plasma, route gavage, dose level Middle
Measured BUN of individual entries
READOUT_KIND: BUN (mg/dL)

INSERT INTO results (smiles_record, readout_kind, recorded_measurement) VALUES
  ('O=C(OC[C@H]1O[C@@H](OC(=O)c2cc(O)c(O)c(OC(=O)c3cc(O)c(O)c(O)c3)c2)[C@H](OC(=O)c2cc(O)c(O)c(OC(=O)c3cc(O)c(O)c(O)c3)c2)[C@@H](OC(=O)c2cc(O)c(O)c(OC(=O)c3cc(O)c(O)c(O)c3)c2)[C@@H]1OC(=O)c1cc(O)c(O)c(OC(=O)c2cc(O)c(O)c(O)c2)c1)c1cc(O)c(O)c(OC(=O)c2cc(O)c(O)c(O)c2)c1', 'BUN', 12.2),
  ('COC(=O)C1=C(C)NC(C)=C(C(=O)OC)C1c1ccccc1[N+](=O)[O-]', 'BUN', 32.2);

###

# Organism: Rattus norvegicus
# ASSAY_COMMENT: Open TG-GATES - Regimen: Daily Repeat
# Type: toxicity, organism-based, Sprague-Dawley
# Set-up: regimen Daily Repeat, gender Male, age 6 weeks
# MEASUREMENT_SETUP: in vivo, po, 0 mg/kg, […], tissue Blood, route gavage, dose level Control, time 14 day
READOUT_KIND: Fbg (mg/dL)

INSERT INTO assay_data (compound, units_symbol, recorded_measurement) VALUES
  ('Brc1ccccc1 [BROMOBENZENE]', 'mg/dL', 320.2),
  ('NC1=NC(=O)C(c2ccccc2)O1 (stereo not drawn) [PEMOLINE]', 'mg/dL', 314),
  ('CCCc1cc(=O)[nH]c(=S)[nH]1 [PROPYLTHIOURACIL]', 'mg/dL', 220.4),
  ('CNC(=C[N+](=O)[O-])NCCSCc1ccc(CN(C)C)o1 [RANITIDINE]', 'mg/dL', 238.8),
  ('CCOc1ccc(NC(C)=O)cc1 [PHENACETIN]', 'mg/dL', 320.2),
  ('CC(C)NNC(=O)c1ccncc1 [IPRONIAZID]', 'mg/dL', 301.2),
  ('Nc1c2c(nc3ccccc13)CCCC2 [TACRINE]', 'mg/dL', 323),
  ('CN1C(=O)CCS(=O)(=O)C1c1ccc(Cl)cc1 (stereo not drawn) [CHLORMEZANONE]', 'mg/dL', 306.8),
  ('CN/C(=N/CCSCc1nc[nH]c1C)NC#N [CIMETIDINE]', 'mg/dL', 218.6),
  ('COC(=O)C1=C(C)NC(C)=C(C(=O)OC)C1c1ccccc1[N+](=O)[O-] [NIFEDIPINE]', 'mg/dL', 320.8),
  ('CN(C)CCC(c1ccc(Cl)cc1)c1ccccn1 (stereo not drawn) [CHLORPHENIRAMINE]', 'mg/dL', 308.2),
  ('Cc1nnc2n1-c1ccc(Cl)cc1C(c1ccccc1Cl)=NC2 [TRIAZOLAM]', 'mg/dL', 250.2),
  ('O=C(OC[C@H]1O[C@@H](OC(=O)c2cc(O)c(O)c(OC(=O)c3cc(O)c(O)c(O)c3)c2)[C@H](OC(=O)c2cc(O)c(O)c(OC(=O)c3cc(O)c(O)c(O)c3)c2)[C@@H](OC(=O)c2cc(O)c(O)c(OC(=O)c3cc(O)c(O)c(O)c3)c2)[C@@H]1OC(=O)c1cc(O)c(O)c(OC(=O)c2cc(O)c(O)c(O)c2)c1)c1cc(O)c(O)c(OC(=O)c2cc(O)c(O)c(O)c2)c1 [TANNIC ACID]', 'mg/dL', 251.8);
